# credit: BindingDB's records for doi:10.1007/s10822-022-00478-x

pIC50: −log10 of the molar value.
What follows is a record of pIC50 for cAMP and cAMP-inhibited cGMP 3',5'-cyclic phosphodiesterase 10A (Homo sapiens).
EXPERIMENTAL ENDPOINT: pIC50

Would you please look over these solved cases?
Reported pIC50, molecule COCCCNC(=O)c1nc(C2CC2)cnc1Nc1cncnc1 [Roche-Dataset for PDE10A, Compound 1027] : ____
6.03

Reported pIC50, molecule Cc1c(Cl)cc(Cl)c2nc(CCc3nc(N4CCCC4)no3)nn12 [Roche-Dataset for PDE10A, Compound 521] : ____
7.77

I = CNC(=O)c1cc(CCC(=O)O)ccc1NC(=O)c1nc(C2CC2)cnc1Nc1cncnc1
II = Cc1cc(C)n2nc(CCc3ncnn3C)nc2n1 [Roche-Dataset for PDE10A, Compound 1159]
Name the one with the greater pIC50 value, either I or II as given. Your choice should be expressed through its label.
I
(I: 9.41, II: 5.00)

----------
What follows is a record of IC50 for cAMP and cAMP-inhibited cGMP 3',5'-cyclic phosphodiesterase 10A (Homo sapiens).
EXPERIMENTAL ENDPOINT: IC50 (nM)

Reported IC50, molecule Cc1ccc(C)c(C(=O)Nc2ccc3cc(-c4ccccc4)nn3c2)n1 [Roche-Dataset for PDE10A, Compound 324] : ____
53

Reported IC50, molecule COCCNC(=O)c1cc2[nH]c(-c3ccccc3)nc2cc1NC(=O)c1cc(Br)c[nH]c1=O [Roche-Dataset for PDE10A, Compound 303] : ____
7.17

Reported IC50, molecule Cc1ncc(C)n2nc(CCc3nc(N4CC[C@@H](C)C4)nn3C)nc12 [Roche-Dataset for PDE10A, Compound 447] : ____
28

Reported IC50, molecule COc1ccc2c(=O)n(C)c3cnc(-c4ccccc4Cl)n3c2c1 [Roche-Dataset for PDE10A, Compound 1048] : ____
432

Reported IC50, molecule O=C(Nc1ccc2nccnc2c1)c1nc(C2CC2)ccc1Nc1cncnc1 [Roche-Dataset for PDE10A, Compound 945] : ____
55

a = CCOC(=O)Cn1nc(-c2ccccn2)cc1NC(=O)c1nc(C2CC2)ccc1Nc1cncnc1
b = CCCCc1cc(NC(=O)c2c(C(=O)N3CCC3)cnn2C)nn1C1CCCC1 [Roche-Dataset for PDE10A, Compound 966]
Name the one with the greater IC50 value, either a or b as given. Your choice should be expressed through its label.
b

----------
# TESTED SYSTEM: cAMP and cAMP-inhibited cGMP 3',5'-cyclic phosphodiesterase 10A (Homo sapiens)
EXPERIMENTAL ENDPOINT: IC50 (nM)

Would you please look over these solved cases?
// fetch cAMP and cAMP-inhibited cGMP 3',5'-cyclic phosphodiesterase 10A (Homo sapiens) IC50 for O=C(NC1CCCCCC1)c1nc(C2CC2)cnc1Nc1cncnc1 [Roche-Dataset for PDE10A, Compound 1154]
1040

// fetch cAMP and cAMP-inhibited cGMP 3',5'-cyclic phosphodiesterase 10A (Homo sapiens) IC50 for Cn1ncc(C(=O)N2CCC2)c1C(=O)Nc1ccn(C(C)(C)C)n1 [Roche-Dataset for PDE10A, Compound 1109]
672

// fetch cAMP and cAMP-inhibited cGMP 3',5'-cyclic phosphodiesterase 10A (Homo sapiens) IC50 for O=C(Nc1ccnn1S(=O)(=O)C(F)(F)F)c1nc(C2CC2)ccc1Nc1cncnc1 [Roche-Dataset for PDE10A, Compound 1004]
30

// fetch cAMP and cAMP-inhibited cGMP 3',5'-cyclic phosphodiesterase 10A (Homo sapiens) IC50 for Cc1ncc(C)n2nc(/C=C/c3nc(N4CC[C@@H](NC(=O)OC(C)(C)C)C4)nn3C)nc12 [Roche-Dataset for PDE10A, Compound 1132]
752

I = O=C(Nc1ccnn1-c1ccccn1)c1nc(C2CC2)ccc1Nc1cncnc1 [Roche-Dataset for PDE10A, Compound 435]
II = Cn1ncc(C(=O)N2CCC2)c1C(=O)Nc1ccn2nc(-c3ccnc(Cl)c3)nc2c1 [Roche-Dataset for PDE10A, Compound 218]
Compare I and II and name the one whose reported IC50 is smaller. Your choice should be expressed through its label.
I

I = CN(C)C(=O)c1cnn(C)c1C(=O)Nc1ccn2nc(-c3ccnc(S(C)(=O)=O)c3)nc2c1 [Roche-Dataset for PDE10A, Compound 421]
II = Cn1nc(-c2ccc3ccccc3n2)cc1NC(=O)c1nc(C2CC2)ccc1Nc1cncnc1
III = CCOc1ccccc1C(=O)Nc1cc(-c2ccccn2)nn1C [Roche-Dataset for PDE10A, Compound 666]
hey, can you rank those compounds up there by IC50? biggest number first please Answer with the labels in sequence, matching the requested order.
III, I, II

A = C/C(=C/c1nc2c(C)ncc(C)n2n1)c1nc(Br)nn1C [Roche-Dataset for PDE10A, Compound 1134]
B = CCN(C)C(=O)c1cnn(CCF)c1C(=O)Nc1ccn2cc(-c3ccccc3)nc2n1 [Roche-Dataset for PDE10A, Compound 26]
Compare A and B and name the one whose reported IC50 is smaller. Your choice should be expressed through its label.
A

----------
What follows is a record of IC50 for UniProt Q9Y233.
EXPERIMENTAL ENDPOINT: IC50 (nM)

Would you please look over these solved cases?
// fetch UniProt Q9Y233 IC50 for c1cc(COc2nc(N3CCOCC3)c3ccccc3n2)nc(N2CCCC2)c1
58

// fetch UniProt Q9Y233 IC50 for Cc1ncc(C)n2nc(/C=C/c3nc(N4CCC[C@H]4CF)nn3C)nc12 [Roche-Dataset for PDE10A, Compound 691]
787

// fetch UniProt Q9Y233 IC50 for O=C(Nc1ccn2nc(-c3ccccc3)nc2c1)c1cncc(Cl)c1 [Roche-Dataset for PDE10A, Compound 385]
71

// fetch UniProt Q9Y233 IC50 for COc1c(C)cnc(CCc2ccc3ccccc3n2)c1C [Roche-Dataset for PDE10A, Compound 701]
1480

P = Cn1ncc(C(=O)NCCOCCO)c1C(=O)Nc1ccn2nc(-c3ccccc3)nc2c1 [Roche-Dataset for PDE10A, Compound 84]
Q = COCc1ccc(Nc2cncnc2)c(C(=O)Nc2cccc(-c3ccn(C)n3)c2)n1 [Roche-Dataset for PDE10A, Compound 790]
Name the one with the greater IC50 value, either P or Q as given. Your choice should be expressed through its label.
P
(P: 14 nM, Q: 5.32 nM)

P = O=C(Nc1cn(Cc2ccccn2)cn1)c1nc(C2CC2)ccc1Nc1cncnc1 [Roche-Dataset for PDE10A, Compound 1036]
Q = CC(C)Oc1cncc(NC(=O)c2nc(C3CC3)cnc2Nc2cncnc2)c1 [Roche-Dataset for PDE10A, Compound 816]
R = CC(C)(O)CNC(=O)c1cccc(NC(=O)c2nc(C3CC3)cnc2Nc2cncnc2)n1 [Roche-Dataset for PDE10A, Compound 894]
hey, can you rank those compounds up there by IC50? biggest number first please Answer with the labels in sequence, matching the requested order.
P, Q, R
(P: 110 nM, Q: 63 nM, R: 5.48 nM)

----------
What follows is a record of IC50 for cAMP and cAMP-inhibited cGMP 3',5'-cyclic phosphodiesterase 10A (Homo sapiens).
EXPERIMENTAL ENDPOINT: IC50 (nM)

Reported IC50, molecule Cc1cc(C)n2nc(CCc3nc(N(C)C)nn3C)nc2n1 [Roche-Dataset for PDE10A, Compound 1140] : ____
535

Reported IC50, molecule O=C(c1nc(C2CC2)cnc1Nc1cncnc1)N1CCN(C2CCCCC2)CC1 [Roche-Dataset for PDE10A, Compound 1040] : ____
10000

Reported IC50, molecule O=C(Nc1ccn(CCCC(F)(F)F)n1)c1nc(C2CC2)ccc1Nc1cncnc1 [Roche-Dataset for PDE10A, Compound 485] : ____
6.66

a = Cn1ncc(C(=O)N(CCO)CCO)c1C(=O)Nc1ccn2nc(-c3ccccc3)nc2c1 [Roche-Dataset for PDE10A, Compound 125]
b = CNC(=O)c1cc(NC(C)=O)ccc1NC(=O)c1nc(C2CC2)cnc1Nc1cncnc1
c = Cn1ncc(C(=O)N2CCC2)c1C(=O)Nc1cc2nc(-c3ccccc3)nn2cn1 [Roche-Dataset for PDE10A, Compound 236]
d = CCn1nccc1C(=O)Nc1cc2nc(-c3ccccc3)[nH]c2cc1C(=O)NC [Roche-Dataset for PDE10A, Compound 482]
hey, can you rank those molecules up there by IC50? biggest number first please Answer with the labels in sequence, matching the requested order.
d, a, c, b

----------
# TESTED SYSTEM: cAMP and cAMP-inhibited cGMP 3',5'-cyclic phosphodiesterase 10A (Homo sapiens, UniProt Q9Y233)
EXPERIMENTAL ENDPOINT: IC50 (nM)

Reported IC50, compound Cc1ncc(C)n2nc(/C=C/c3nc(N4CCC[C@@H]4C(F)(F)F)nn3C)nc12 [Roche-Dataset for PDE10A, Compound 782] : ____
3.4

P = CC(=O)N(C)c1cccc(NC(=O)c2nc(C3CC3)cnc2Nc2cncnc2)c1 [Roche-Dataset for PDE10A, Compound 821]
Q = COc1ccc(-c2nnc(NC(=O)c3nc(C4CC4)ccc3Nc3cncnc3)s2)cc1
Compare P and Q and name the one whose reported IC50 is smaller. Your choice should be expressed through its label.
P
(P: 135 nM, Q: 1790 nM)

a = Cc1nc2ccccc2nc1OCc1nc(-c2ccc(Cl)cc2)cn1C [Roche-Dataset for PDE10A, Compound 810]
b = Cc1ncoc1C(=O)Nc1cc(-c2ccccn2)nn1C [Roche-Dataset for PDE10A, Compound 979]
Compare a and b and name the one whose reported IC50 is smaller. Your choice should be expressed through its label.
a

P = COc1cnc(C)n2c(CCc3nc(N4CCCC4)nn3C)nnc12 [Roche-Dataset for PDE10A, Compound 633]
Q = Cn1ncc(C(=O)N2CCC2)c1C(=O)Nc1ccn(Cc2cn(-c3ccc(Cl)c(Cl)c3)cn2)n1 [Roche-Dataset for PDE10A, Compound 669]
Compare P and Q and name the one whose reported IC50 is smaller. Your choice should be expressed through its label.
Q
